system-under-test: cloned human or rodent CNS receptors, channels, and transporters (PDSP panel) (Homo sapiens)
Construct: expressed in transfected cells
Sequence (P25021 whole entry): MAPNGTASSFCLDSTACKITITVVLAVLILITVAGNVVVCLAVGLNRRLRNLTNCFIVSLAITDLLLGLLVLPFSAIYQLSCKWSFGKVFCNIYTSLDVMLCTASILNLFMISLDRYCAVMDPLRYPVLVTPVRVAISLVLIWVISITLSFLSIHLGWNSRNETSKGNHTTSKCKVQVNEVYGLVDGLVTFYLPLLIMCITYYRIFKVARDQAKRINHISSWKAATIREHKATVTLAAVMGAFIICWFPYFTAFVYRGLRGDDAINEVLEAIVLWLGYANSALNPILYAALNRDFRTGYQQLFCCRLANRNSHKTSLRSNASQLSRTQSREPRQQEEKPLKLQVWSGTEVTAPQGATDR
protocol-notes: PDSP GPCR panel primary binding assays at 10 μM
study-conditions: H2; primary assay, replicate 1
Below: a set of entries, each annotated with reported Inhibition 1.
Kindly provide the numeric value in % only, without the unit symbol.

{"compound": "CNc1nc(C)nc(N[C@H]2CCC[C@@H](C(=O)NCc3ccc(C#N)cc3C(F)(F)F)C2)n1 [UNC10302679A, GSK2256294A]", "endpoint-value": -8.72}
{"compound": "CCC(=O)N1CCC(NC(=O)Nc2ccc(OC(F)(F)F)cc2)CC1 [UNC10302681A, TPPU]", "endpoint-value": -3.12}
{"compound": "O=C(NC1CC1)C(=O)C(Cc1ccccc1)NC(=O)[C@H]1CCC(=O)N1Cc1ccccc1 (some centres unmarked) [UNC10302676A, ABT-957 (Alicapistat)]", "endpoint-value": -6.09}
{"compound": "CC(=O)N1CCC(NC(=O)NC23CC4CC(CC(C4)C2)C3)CC1 [UNC10302683A, AR9281]", "endpoint-value": 4.92}

// switching to the query compound
Name the recorded Inhibition 1 for O=c1oc2ccccc2cc1-c1cn2cc(Cc3ccc(F)cc3)sc2n1 [UNC10302680A, iMDK] .
32.28
